Give IC50 for every item shown.
# experimental target: human TREX1 (Homo sapiens)
# Construct: N-terminally His-Tev tagged full length human TREX1
# Sequence (Q9NSU2 whole entry): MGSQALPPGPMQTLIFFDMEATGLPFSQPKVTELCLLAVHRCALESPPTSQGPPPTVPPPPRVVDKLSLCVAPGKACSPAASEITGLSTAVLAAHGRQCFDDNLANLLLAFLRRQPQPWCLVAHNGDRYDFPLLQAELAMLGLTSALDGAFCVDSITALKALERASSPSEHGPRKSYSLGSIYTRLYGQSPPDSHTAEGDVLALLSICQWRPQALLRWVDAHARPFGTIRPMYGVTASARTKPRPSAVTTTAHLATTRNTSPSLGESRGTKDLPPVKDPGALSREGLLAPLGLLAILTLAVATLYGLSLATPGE
# test description: hTREX1 Biochemical Assay (fluorescence, dsDNA substrate degradation)
# condition notes: full length human TREX1, 4 h pre-incubation, 18 h reaction at 25° C.

CC(c1nc(C(=O)Nc2cnoc2)c(O)c(=O)n1C)C(c1ccccc1)c1ccc(Cl)cc1C#N (single isomer, unassigned) [Example 9 Isomer 4] = < 1 nM
C[C@H](c1nc(C(=O)Nc2cnoc2)c(O)c(=O)n1C)C(c1ccccc1Cl)c1ccccc1Cl (single isomer, unassigned) [Example 15 Isomer 1] = < 1 nM

// fetch human TREX1 (Homo sapiens) IC50 for CC(c1nc(C(=O)Nc2cnoc2)c(O)c(=O)n1C)C(c1ccccc1)c1cc(C(=O)N(C)C)ccc1C#N (single isomer, unassigned) [Example 17 Isomer 1]
10 to 100 nM
